Biological target: JAK1 (Homo sapiens)
Construct: purchased Invitrogen
Sequence (P23458 whole entry): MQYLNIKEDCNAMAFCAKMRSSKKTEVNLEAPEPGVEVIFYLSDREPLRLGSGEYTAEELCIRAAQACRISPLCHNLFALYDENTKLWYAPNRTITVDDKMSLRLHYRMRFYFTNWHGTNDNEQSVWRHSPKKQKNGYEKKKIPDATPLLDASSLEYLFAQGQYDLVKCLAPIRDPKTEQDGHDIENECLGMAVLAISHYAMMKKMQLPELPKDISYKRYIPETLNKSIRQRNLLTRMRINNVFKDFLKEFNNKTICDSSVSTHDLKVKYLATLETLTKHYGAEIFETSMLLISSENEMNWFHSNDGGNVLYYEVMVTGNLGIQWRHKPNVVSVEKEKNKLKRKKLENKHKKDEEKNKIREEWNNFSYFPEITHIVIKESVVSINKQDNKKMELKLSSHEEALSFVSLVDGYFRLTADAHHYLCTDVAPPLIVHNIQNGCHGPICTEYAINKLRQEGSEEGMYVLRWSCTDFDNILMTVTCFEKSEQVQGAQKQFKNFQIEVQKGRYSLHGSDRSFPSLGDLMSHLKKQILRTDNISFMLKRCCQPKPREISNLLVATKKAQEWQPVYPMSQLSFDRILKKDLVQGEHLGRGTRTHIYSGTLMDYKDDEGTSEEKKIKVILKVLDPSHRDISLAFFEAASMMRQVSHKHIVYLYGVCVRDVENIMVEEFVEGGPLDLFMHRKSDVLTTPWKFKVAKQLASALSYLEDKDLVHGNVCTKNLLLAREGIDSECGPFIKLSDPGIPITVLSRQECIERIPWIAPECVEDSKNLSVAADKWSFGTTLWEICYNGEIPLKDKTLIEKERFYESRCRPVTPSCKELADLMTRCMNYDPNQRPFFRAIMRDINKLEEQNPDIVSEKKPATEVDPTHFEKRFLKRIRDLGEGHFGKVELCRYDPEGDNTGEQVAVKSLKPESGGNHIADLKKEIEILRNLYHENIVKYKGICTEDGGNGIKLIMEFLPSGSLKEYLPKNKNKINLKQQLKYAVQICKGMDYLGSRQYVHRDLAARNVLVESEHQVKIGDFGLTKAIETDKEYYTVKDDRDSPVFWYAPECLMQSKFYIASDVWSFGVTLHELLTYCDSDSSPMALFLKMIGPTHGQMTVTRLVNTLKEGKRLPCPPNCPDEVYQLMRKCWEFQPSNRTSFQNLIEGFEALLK
Assay: JAK1 enzyme inhibition test (LANCE method)
Format: biochemical
Conditions: test compound 1 μM; read-out: Inhibitory rate (%) JAK1 1 μM
Items are presented alongside their recorded inhibition at 1 µM.
The figure you give is taken to be in %; do not add the unit.

Entry NS(=O)(=O)c1ccc(-n2nc(C3CCCC3)c3cc[nH]c(=O)c32)cc1 [Example 75] needs its inhibition at 1 µM filled in; supply it.
93

Entry COC(=O)c1c[nH]c(=O)c2c(-c3csc(C(N)=O)c3)cn(C3CCCC3)c12 [Example 34] needs its inhibition at 1 µM filled in; supply it.
92

Entry CC1(Cn2nc(-c3ccc(S(N)(=O)=O)cc3)c3c(=O)[nH]ccc32)COC1 [Example 100] needs its inhibition at 1 µM filled in; supply it.
96

Next:
Entry CN1CCN(c2ccc(-c3nn(-c4c(F)cccc4F)c4cc[nH]c(=O)c34)cc2)C1=O [Example 240] needs its inhibition at 1 µM filled in; supply it.
88

Entry CC[C@@H](COC)n1nc(-c2csc(C(N)=O)c2)c2c(=O)[nH]ccc21 [Example 262] needs its inhibition at 1 µM filled in; supply it.
97

Entry Cc1c[nH]c(=O)c2c(-c3ccc(N4CCOCC4)cc3)nn(-c3c(F)cccc3F)c12 [Example 235] needs its inhibition at 1 µM filled in; supply it.
92
